- system-tested: NS3/NS4 complexes (Hepatitis C virus genotype 1a, UniProt P27958)
- Sequence (P27958 1027-1657): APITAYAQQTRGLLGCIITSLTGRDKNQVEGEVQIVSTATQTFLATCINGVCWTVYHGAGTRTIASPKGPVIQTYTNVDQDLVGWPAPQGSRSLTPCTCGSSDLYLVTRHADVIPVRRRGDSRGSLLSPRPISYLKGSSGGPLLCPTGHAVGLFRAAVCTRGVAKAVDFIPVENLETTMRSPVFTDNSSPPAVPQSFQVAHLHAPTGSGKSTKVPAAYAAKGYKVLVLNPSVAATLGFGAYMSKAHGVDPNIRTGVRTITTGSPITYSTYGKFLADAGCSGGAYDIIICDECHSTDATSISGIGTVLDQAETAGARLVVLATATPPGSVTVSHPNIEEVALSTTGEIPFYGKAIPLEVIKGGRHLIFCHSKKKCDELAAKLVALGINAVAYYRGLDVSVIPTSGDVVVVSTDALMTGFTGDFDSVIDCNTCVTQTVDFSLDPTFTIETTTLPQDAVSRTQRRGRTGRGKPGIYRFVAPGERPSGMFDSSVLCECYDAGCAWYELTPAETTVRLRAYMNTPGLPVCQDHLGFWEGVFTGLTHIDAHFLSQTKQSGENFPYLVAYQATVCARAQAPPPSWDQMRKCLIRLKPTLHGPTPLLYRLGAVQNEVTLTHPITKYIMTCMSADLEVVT
- Sequence (P27958 1658-1711): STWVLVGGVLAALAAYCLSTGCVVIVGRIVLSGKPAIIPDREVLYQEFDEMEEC
- procedure-details: NS3/NS4 inhibition activity (IC50)
- Format: biochemical
- experimental-context: Table 2, read-out: IC50

compound	IC50
COc1ccc2c(O[C@@H]3C[C@H]4C(=O)N[C@]5(C(=O)NS(=O)(=O)C6(C)CC6)C[C@H]5/C=C\CCCCC[C@H](Nc5ccccc5)C(=O)N4C3)cc(-c3nc(C(C)C)cs3)nc2c1C [Compound 359]	< 10 nM
O=C1N[C@]2(C(=O)O)C[C@H]2/C=C\CCCCC[C@H](Nc2ccc(Cl)c(Cl)c2)C(=O)N2C[C@H](Oc3nc4ccccc4s3)C[C@@H]12 [Compound 333]	75 to 500 nM
O=C1N[C@]2(C(=O)NS(=O)(=O)C3CC3)C[C@H]2/C=C\CCCCC[C@H](Nc2ccc(F)cc2)C(=O)N2C[C@H](Oc3nc4ccccc4s3)C[C@@H]12 [Compound 348]	< 10 nM
CC1(S(=O)(=O)NC(=O)[C@@]23C[C@H]2/C=C\CCCCC[C@H](Nc2ccc(F)c(C(F)(F)F)c2)C(=O)N2C[C@H](Oc4nccc5ccccc45)C[C@H]2C(=O)N3)CC1 [Compound 347]	< 10 nM
CC1(S(=O)(=O)NC(=O)[C@@]23C[C@H]2/C=C\CCCCC[C@H](Nc2cc(C(F)(F)F)cc(C(F)(F)F)c2)C(=O)N2C[C@H](Oc4nc5ccccc5s4)C[C@H]2C(=O)N3)CC1 [Compound 336]	< 10 nM
CC1(S(=O)(=O)NC(=O)[C@@]23C[C@H]2/C=C\CCCCC[C@H](Nc2nc4ccccc4o2)C(=O)N2C[C@H](Oc4nccc5ccccc45)C[C@H]2C(=O)N3)CC1 [Compound 380]	< 10 nM
Cc1cccc2c1nc(O[C@@H]1C[C@H]3C(=O)N[C@]4(C(=O)NS(=O)(=O)C5(C)CC5)C[C@H]4/C=C\CCCCC[C@H](Nc4ccccc4)C(=O)N3C1)n2C(C)C [Compound 471]	< 10 nM
CC1(S(=O)(=O)NC(=O)[C@@]23C[C@H]2/C=C\CCCCC[C@H](Nc2ccccc2)C(=O)N2C[C@H](Oc4nc5ccc(Br)cc5s4)C[C@H]2C(=O)N3)CC1 [Compound 214]	< 10 nM
CC1(S(=O)(=O)NC(=O)[C@@]23C[C@H]2/C=C\CCCCC[C@H](Nc2ccccc2)C(=O)N2C[C@H](Oc4nccc5ccccc45)C[C@H]2C(=O)N3)CC1 [Compound 221]	< 10 nM
COc1ccc2c(O[C@@H]3C[C@H]4C(=O)N[C@]5(C(=O)NS(=O)(=O)C6(C)CC6)C[C@H]5/C=C\CCCCC[C@H](Nc5cc(F)cc(C(F)(F)F)c5)C(=O)N4C3)cc(-c3ccccc3)nc2c1 [Compound 357]	10 to 75 nM
